molecular target: T1, MBP-RAMP1 ECD-(GS)5-CLR ECD-H6 fusion protein (human, UniProt O60894 24-111; Q16602 29-144); assay: ratio of FP KI values at the two ECD complexes
T1 construct: range 24-111;range 29-144; Tethered ECD fusion made in E. coli; used in the FP assay at 15 nM; also called MBP-hRAMP1.24-111-(Gly-Ser)5-hCLR.29-144-H6
T1 sequence (O60894 other isoform, or with tags, fused parts or gaps limits assumed, form in doubt): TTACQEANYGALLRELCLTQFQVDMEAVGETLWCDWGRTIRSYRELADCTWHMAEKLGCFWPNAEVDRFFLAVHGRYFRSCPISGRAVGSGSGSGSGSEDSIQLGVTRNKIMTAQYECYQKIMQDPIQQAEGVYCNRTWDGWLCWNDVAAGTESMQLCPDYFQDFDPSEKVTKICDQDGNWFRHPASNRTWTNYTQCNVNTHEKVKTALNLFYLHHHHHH
Where no end group is shown, it is not given here.
measuredProperty: Receptor Selectivity (fold, over RAMP2-CLR ECD) (fold)
Express the result in fold but write the number alone.

Below: 6 binders and their reported Receptor Selectivity (fold, over RAMP2-CLR ECD).
DKDNVAPRTWISPWGY-NH2 [AM(37-52)NH2[S45T, K46W, Q50W]]
28
FVPTDTGPWGY-NH2 [CGRP(27-37)NH2 [N31D, V32T, S34P, K35W, A36G, F37Y]]
821
DKDNVAPRSLISPWGF-NH2 [AM(37-52)NH2 [K46L, Q50W, Y52F]]
2820
FVPTDVGPWSY-NH2 [CGRP(27-37)NH2 [N31D, S34P, K35W, A36S, F37Y]]
245
DKDNVAPRTLISPWGY-NH2 [AM(37-52)NH2[S45T, K46L, Q50W]]
24
DKFNVAPRSLISPWGF-NH2 [AM(37-52)NH2 [D39F, K46L, Q50W, Y52F]]
1210

**Q:** Receptor Selectivity (fold, over RAMP2-CLR ECD) for DKDNVAPRWWISPWGF-NH2 [AM(37-52)NH2 [S45W, K46W, Q50W, Y52F]] ?
**A:** 692

**Q:** Receptor Selectivity (fold, over RAMP2-CLR ECD) for FVPTDVGPWSF-NH2 [CGRP(27-37)NH2 [N31D, S34P, K35W, A36S]] ?
**A:** 1860
